Test Description: chemical genetic growth profiling, strain panel (AID 1159580);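 note: tested at 20 µM; growth read once vehicle control cultures reached saturation at 30 °C; 1 = growth at the plate median or of vehicle wells; lower values mean less growth of the strain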
Measurement Conditions: S. cerevisiae deletion strains, growth OD, locus YJR066W, strain TOR1, stronger effect = lower value
The whole screen tested about 5,500 compounds, of which about 2,000 (36%) were called active. Another 18% or so got no clear call; they are omitted. This is one part of the list.
Observation Type: normalized growth
The reply should be a number, written without any unit.

Compound: N/C(=N/OC(=O)c1ccc([N+](=O)[O-])cc1)c1c(Cl)cccc1Cl
normalized growth: 0.642
//
Compound: COC1=CC(=O)C=C(OC)C1=O
normalized growth: 0.941
//
Compound: Oc1ccc([C@H]2Oc3cc(O)cc(O)c3C[C@H]2O)cc1
normalized growth: 0.947
//
Compound: CC(C)(C)NC(=S)N/N=C\c1cc(Br)c(O)c(Br)c1
normalized growth: 0.864
//
Compound: NS(=O)(=O)c1cc2c(cc1C(F)(F)F)NC(Cc1ccccc1)NS2(=O)=O (centres undefined)
normalized growth: 0.949
//
Compound: CC(=O)[C@@]1(O)CCC2C3C=C(Cl)C4=CC(=O)[C@@H]5CC5[C@]4(C)C3CC[C@@]21C (some centres undefined)
normalized growth: 0.95
//
Compound: C[C@@H]1CC[C@@]23CCC4(C)[C@@](C=CC5[C@@]6(C)CCC(=O)C(C)(C)C6CC[C@]54C)(OC2=O)C3[C@H]1C (some centres undefined)
normalized growth: 0.953
//
Compound: O=C(CCCN1CCC2(CC1)C(=O)NCN2c1ccccc1)c1ccc(F)cc1
normalized growth: 0.938
//
Compound: N/C(=N/OC(=O)c1cnn(-c2ccc([N+](=O)[O-])cc2)c1C(F)(F)F)c1ccc(Cl)cc1
normalized growth: 1.01
//
Compound: CCCCCCCCCCCCSc1ncn[nH]1
normalized growth: 0.297

Item C[C@H]1O[C@H](O[C@H]2[C@H](O)[C@@H](O)[C@@H](O[C@H]3[C@H](O)[C@@H](O)C(O)O[C@@H]3CO)O[C@@H]2CO)[C@H](O)[C@@H](O)[C@@H]1N[C@H]1C=C(CO)[C@@H](O)[C@H](O)[C@H]1O (some centres undefined) has what recorded normalized growth?
0.916

Please answer likewise for CO[C@@H]1C[C@H](O[C@H]2CC[C@]3(C)C4CC[C@]5(C)[C@@H](C6=CC(=O)OC6)CC[C@]5(O)[C@@H]4CC[C@]3(O)C2)O[C@H](C)[C@@H]1O (some centres undefined)
0.987

Next entry: Cc1cc(-c2onc(C)c2C(=O)Sc2ccccc2)no1
0.892

----------
Test Description: chemical genetic growth profiling, strain panel (AID 1159580)
Measurement Conditions: S. cerevisiae deletion strains, growth OD, locus YOR231W, strain MKK1, stronger effect = lower value
Among all 5,500 compounds or so, about 2,000 (36%) were called active. About 18% were inconclusive and are not listed. Some of the results follow.
Field 'label' (enum: 1.0 / 0.0). Set to 1.0 when normalized growth is strictly under 1; else 0.0.

Molecule: COC1=CC(C)[C@@H]2C[C@H]3OC(=O)C[C@H]4C(C)=C(OC)C(=O)C([C@@]34C)[C@@]2(C)C1=O (stereo partly specified)
Assigned Label: 0.0

Moving on to the next molecule.
Below 1 on normalized growth? Entry Cc1ccc(Sc2ncccc2NS(=O)(=O)c2ccc(Cl)cc2)cc1
1.0

----------
Test Description: chemical genetic growth profiling, strain panel (AID 1159580);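 note: tested at 20 µM; growth read once vehicle control cultures reached saturation at 30 °C; 1 = growth at the plate median or of vehicle wells; lower values mean less growth of the strain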
Measurement Conditions: S. cerevisiae deletion strains, growth OD, locus YML120C, strain ndi1
Out of some 5,500 compounds screened, about 2,000 (36%) were called active. Not shown: some 18% with an inconclusive outcome. Cut-off read from the data, not from the text of the source: active = normalized growth mostly below about 0.91 (no sharp cut-off); inconclusive = no clear call, values can overlap the other calls; inactive = mostly above about 0.92. The list shows a part of the results.
Respond with a class label; see active, inactive

Worked set:
Compound: O=C(Oc1ccccc1C(=O)O)c1ccccc1O
Assigned Label: inactive
//
Compound: CCn1nc(C(=O)O)c(=O)c2cc3c(cc21)OCO3
Assigned Label: inactive
//
Compound: OC1(c2ccc(Cl)c(C(F)(F)F)c2)CCN(CCCC(c2ccc(F)cc2)c2ccc(F)cc2)CC1
Assigned Label: active
//
Compound: O=C(CCCN1CCN(c2ccccn2)CC1)c1ccc(F)cc1
Assigned Label: inactive
//
Compound: CC(=O)Oc1ccccc1C(=O)Oc1ccccc1C(=O)O
Assigned Label: inactive
//
Compound: O=C(O)C1=CC(=C(c2ccc(O)c(C(=O)O)c2)c2ccc(O)c(C(=O)O)c2)C=CC1=O
Assigned Label: inactive
//
Compound: COc1ccccc1N1CCN(CCCNc2cc(=O)n(C)c(=O)n2C)CC1
Assigned Label: inactive
//
Compound: C[C@H]1[C@H](C)CC[C@]2(C(=O)O)CC[C@]3(C)C(=CCC4[C@@]5(C)C[C@@H](O)[C@H](O)[C@@](C)(CO)C5[C@H](O)C[C@]43C)[C@H]12 (stereo not given in full)
Assigned Label: inactive

I would be grateful if you could indicate the recorded call for C[C@H]1O[C@H](O[C@H]2[C@H](O)[C@@H](O)[C@@H](O[C@H]3[C@H](O)[C@@H](O)C(O)O[C@@H]3CO)O[C@@H]2CO)[C@H](O)[C@@H](O)[C@@H]1N[C@H]1C=C(CO)[C@@H](O)[C@H](O)[C@H]1O (stereo not given in full) .
inactive

What do you have for O=C(Oc1cccc2cccnc12)c1ccccc1 ?
inactive

----------
Test Description: chemical genetic growth profiling, strain panel (AID 1159580);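 note: tested at 20 µM; growth read once vehicle control cultures reached saturation at 30 °C; 1 = growth at the plate median or of vehicle wells; lower values mean less growth of the strain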
Measurement Conditions: S. cerevisiae deletion strains, growth OD, locus YOR231W, strain MKK1, stronger effect = lower value
Out of some 5,500 compounds screened, about 2,000 (36%) were called active. Roughly 18% stayed inconclusive and do not appear here. This is one part of the list.
Field: label. Allowed values: true (normalized growth < 1) or false (normalized growth >= 1).

Consider the following illustrative entries.
Molecule: NC[C@@H]1O[C@H](O[C@@H]2[C@@H](CO)OC(O[C@@H]3[C@@H](O)[C@H](N)C[C@H](N)[C@H]3O[C@H]3O[C@H](CO)[C@@H](O)[C@H](O)[C@H]3N)[C@@H]2O)[C@H](N)[C@@H](O)[C@@H]1O (stereo partly drawn)
Assigned Label: true
//
Molecule: N/C(=N/OC(=O)c1cnn(-c2ccc([N+](=O)[O-])cc2)c1C(F)(F)F)c1ccc(Cl)cc1
Assigned Label: true
//
Molecule: C/C(=N/NC(N)=S)c1csc(-c2ccccc2)n1
Assigned Label: true
//
Molecule: CN1/C(=C/C=C/c2ccc3ccccc3[n+]2C)C=Cc2ccccc21
Assigned Label: true
//
Molecule: N#Cc1ccc2[nH]cc(CCN(Cc3ccccc3)Cc3ccccc3)c2c1
Assigned Label: false
//
Molecule: CC(C)(C)NC(=S)N/N=C\c1cc(Br)c(O)c(Br)c1
Assigned Label: true
//
Molecule: Cc1cc(Br)c(O)c(/C=N\NC(=S)NC(C)(C)C)c1
Assigned Label: true
//
Molecule: CCC(=O)OCC(=O)C1(OC(=O)CC)C(C)CC2C3CCC4=CC(=O)C=CC4(C)C3(Cl)C(O)CC21C (stereo not drawn)
Assigned Label: false

In plain terms, does CCC(=O)O[C@]1(C(=O)CCl)[C@@H](C)CC2C3CCC4=CC(=O)C=C[C@]4(C)[C@@]3(F)[C@@H](O)C[C@@]21C (stereo partly drawn) come in under 1 for normalized growth?
true

Next entry: COc1ccc(N=C2SCC(c3ccc(C)cc3)=NN2CCO)cc1
true

How about CN(C)/C=C1\CSc2ccc(Cl)cc2C1=O ?
true

Again, but for CO[C@@H]1[C@@H](OC(N)=O)[C@@H](O)[C@H](Oc2ccc3c(O)c(NC(=O)c4ccc(O)c(CC=C(C)C)c4)c(=O)oc3c2C)OC1(C)C
true

Next record, please: N/C(=N/OC(=O)Nc1cccc(C(F)(F)F)c1)c1ccc(OC(F)(F)F)cc1
true

----------
Test Description: chemical genetic growth profiling, strain panel (AID 1159580);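 note: tested at 20 µM; growth read once vehicle control cultures reached saturation at 30 °C; 1 = growth at the plate median or of vehicle wells; lower values mean less growth of the strain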
Measurement Conditions: S. cerevisiae deletion strains, growth OD, locus YPL256C, strain CLN2, stronger effect = lower value
Out of some 5,500 compounds screened, about 2,000 (36%) were called active. Not shown: some 18% with an inconclusive outcome. This is one part of the list.
Recorded normalized growth values for a group of molecules are listed next.
Lab note: write the figure by itself, no unit.

// below: answered molecules
Molecule: C[C@H]1[C@H](C)CC[C@]2(C(=O)O)CC[C@]3(C)C(=CCC4[C@@]5(C)C[C@@H](O)[C@H](O)[C@@](C)(CO)C5[C@H](O)C[C@]43C)[C@H]12 (stereo partly drawn)
Observation Type: normalized growth
Meas Value: 0.958

Molecule: O=C1/C(=C/c2c[nH]c3ccccc23)CSc2ccccc21
Observation Type: normalized growth
Meas Value: 1.04

Molecule: CC(=O)c1ccc(S(=O)(=O)NC(=O)NC2CCCCC2)cc1
Observation Type: normalized growth
Meas Value: 0.965

Please give the measured normalized growth for this molecule: O=S(=O)(O)O
1.06

Subsequent entry: CCC(=O)NCC[C@@H]1CCc2ccc3c(c21)CCO3
0.942

Next molecule: CC1(C)S[C@@H]2[C@H](NC(=O)C(C(=O)O)c3ccccc3)C(=O)N2[C@H]1C(=O)O (stereo partly drawn)
1.03

Param item: CC(C)(C)NC(=S)N/N=C\c1cc(Br)c(O)c(Br)c1
0.902

Moving on to the next molecule: C/C(=N/NC(N)=S)c1csc(-c2ccccc2)n1
1.05
